- System: TbpB N-lobe from H. somnus
- experiment notes: bTf C-lobe overlapping peptide library probed with HRP-labelled H. somnus TbpB N-lobe
- Format: binding
measured metric: binding to H. somnus TbpB N-lobe (bound peptide listed; None = did not bind)

NLKKENFEVLCKDGT (TbpB N-lobes of Bovine Pathgens) [Peptide 11, bTf C-lobe library peptide]
None
